Where do the numbers come from? From the supplement of paper PMC12024424.

Below, each entry is listed with its recorded growth reduction.
Test system: Staphylococcus aureus Sa2 (MRSA, cystic fibrosis isolate)
experiment.notes: growth reduction vs untreated control (viable cell count); higher = stronger antibacterial activity; extreme values may be limits of the assay
condition.context: 0.1 mM; 24 h
Structures can show the parent of a compound that is named as a salt.

[
  {
    "molecule": "Cc1cc2c(F)c(Oc3ncnn4cc(OC[C@@H](C)OC(=O)[C@H](C)N)c(C)c34)ccc2[nH]1 [Brivanib (alaninate)]",
    "growth reduction / %": 100
  },
  {
    "molecule": "Cn1cc(-c2ccncc2)c(-c2ccc(OCc3ccc4ccccc4n3)cc2)n1 [Mardepodect (hydrochloride)]",
    "growth reduction / %": 97
  },
  {
    "molecule": "CC(C)=CCC/C(C)=C/CC/C(C)=C/CSc1ccccc1C(=O)O",
    "growth reduction / %": 100
  },
  {
    "molecule": "CSc1ccc(OCc2ncc([N+](=O)[O-])n2C)cc1",
    "growth reduction / %": 93
  },
  {
    "molecule": "COc1cccc2c1C(=O)c1c(O)c3c(c(O)c1C2=O)C[C@@](O)(C(=O)CO)C[C@@H]3O[C@H]1C[C@H](N)[C@H](O)[C@H](C)O1 [Doxorubicin (hydrochloride)]",
    "growth reduction / %": 100
  },
  {
    "molecule": "O=C(O)CCCc1cc2cc(Cl)ccc2n1S(=O)(=O)c1ccc2ncsc2c1",
    "growth reduction / %": 99
  },
  {
    "molecule": "COc1ccc(CN2CCN(C(c3ccc(F)cc3)c3ccc(F)cc3)CC2)c(OC)c1OC [Lomerizine dihydrochloride]",
    "growth reduction / %": 98
  },
  {
    "molecule": "COc1cccc2c1C(=O)c1c(O)c3c(c(O)c1C2=O)C[C@@](O)(C(=O)CO)C[C@@H]3O[C@H]1C[C@H](N)[C@@H](O)[C@H](C)O1 [Epirubicin (hydrochloride)]",
    "growth reduction / %": 100
  },
  {
    "molecule": "CC(C)(C)NCC(O)COc1ccccc1C1CCCC1 (single isomer, unassigned; (+)) [(+)-Penbutolol]",
    "growth reduction / %": 94
  },
  {
    "molecule": "Nc1ccc(S(=O)(=O)Nc2cnc3c(Cl)cccc3n2)cc1 [Chloroquinoxaline sulfonamide]",
    "growth reduction / %": 99
  },
  {
    "molecule": "CCCCCCCOc1ccc(CCC(N)(CO)CO)cc1C(F)(F)F [Amiselimod (hydrochloride)]",
    "growth reduction / %": 100
  },
  {
    "molecule": "CN1C(C(=O)Nc2ccccn2)=C(O)c2sc(Cl)cc2S1(=O)=O",
    "growth reduction / %": 98
  },
  {
    "molecule": "CC[C@@]1(O)C[C@H](O[C@H]2C[C@H](N(C)C)[C@H](O[C@H]3C[C@H](O)[C@H](O[C@H]4CCC(=O)[C@H](C)O4)[C@H](C)O3)[C@H](C)O2)c2c(cc3c(c2O)C(=O)c2c(O)cccc2C3=O)[C@H]1C(=O)OC [Aclacinomycin A hydrochloride]",
    "growth reduction / %": 100
  }
]
